This collection of values is drawn from the supplement of paper PMC7877785.

Experiment: self-splicing fitness, log relative to wild type (ln ratio); higher = more splicing; Tetrahymena group I intron in knt gene, E. coli kanamycin selection, DiMSum; sequences stand for … in CUCUCU…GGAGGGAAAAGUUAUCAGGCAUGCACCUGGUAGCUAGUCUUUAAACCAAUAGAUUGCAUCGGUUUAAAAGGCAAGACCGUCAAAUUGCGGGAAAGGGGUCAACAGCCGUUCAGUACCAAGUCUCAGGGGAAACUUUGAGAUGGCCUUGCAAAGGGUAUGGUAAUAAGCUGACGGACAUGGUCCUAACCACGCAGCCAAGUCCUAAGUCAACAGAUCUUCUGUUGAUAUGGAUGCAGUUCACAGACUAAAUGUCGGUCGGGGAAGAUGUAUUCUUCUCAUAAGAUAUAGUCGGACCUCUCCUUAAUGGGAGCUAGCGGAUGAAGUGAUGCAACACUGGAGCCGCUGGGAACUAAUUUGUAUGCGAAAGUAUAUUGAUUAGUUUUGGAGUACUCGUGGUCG;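 further: selection with 25 µg/mL kanamycin versus none on LB agar overnight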
Settings: 30 °C
Label 1.0 when self-splicing fitness (ln) >= -3; otherwise 0.0.

Example entries begin here.
| SEQ_TEXT | LABEL_VALUE |
| --- | --- |
| UAGUAGCAAUAUUACGGGGA | 1.0 |
| GAAGAGCAAUAUUACGCUCU | 0.0 |
| CAAUAGCAAUAUUACGAAUG | 1.0 |
| GUGGAGCAAUAUUACGGUAA | 1.0 |
| ACUGAGCAAUAUUACGAUGG | 1.0 |

Note: attention shifts to another entry.
Identify whether the reported self-splicing fitness (ln) of the following sequence is -3 or greater: AAAUAGCAAUAUUACGACCG
1.0
